Origin of values: patent EP0170024A2

Molecular target: CCK receptor (pancreas) (Rattus norvegicus, UniProt P30551)
Construct: The whole pancreas of a male Sprague-Dawley rat (200-350 g), which had been sacrificed by decapitation, was dissected free of fat tissue and homogenized; from tissue; host or cells: rat pancreas membrane homogenate
Sequence (P30551 1-444): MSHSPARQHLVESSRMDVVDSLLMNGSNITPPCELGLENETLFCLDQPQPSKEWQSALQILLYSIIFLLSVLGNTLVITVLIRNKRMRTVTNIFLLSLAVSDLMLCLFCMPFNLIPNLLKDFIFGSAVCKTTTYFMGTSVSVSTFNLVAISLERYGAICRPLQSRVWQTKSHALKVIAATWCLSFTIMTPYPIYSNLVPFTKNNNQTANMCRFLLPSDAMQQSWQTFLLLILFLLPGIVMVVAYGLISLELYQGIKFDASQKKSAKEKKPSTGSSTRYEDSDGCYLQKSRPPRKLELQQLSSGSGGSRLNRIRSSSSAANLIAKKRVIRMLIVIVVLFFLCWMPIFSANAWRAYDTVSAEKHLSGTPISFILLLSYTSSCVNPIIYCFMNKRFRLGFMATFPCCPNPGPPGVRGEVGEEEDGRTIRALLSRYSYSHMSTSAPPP
Assay: CCK receptor binding (pancreas), 125I-CCK-33 receptor binding assay
Conditions: inhibition of 50% of the 125I-CCK binding, rat pancreas membranes, 37°C, 30 minutes; read-out: IC50 (µM) CCK Pancreas
MEASURED_PROPERTY: IC50 (µM)
One number for each entry, in µM.

Each of the following entries comes with a recorded value; kindly state IC50 for each.
1. CN1c2ccccc2C(c2ccccc2F)=NCC1CN1C(=O)c2ccccc2C1=O (stereo not shown)
2. CN1c2ccccc2C(c2ccccc2F)=NCC1CNC(=O)c1ccc(Cl)cc1 (stereo not shown)
3. CN1c2ccccc2C(c2ccccc2F)=NCC1CNC(=O)c1ccccc1F (stereo not shown)

Result:
1. 4.3
2. 0.8
3. 2.9

According to the records, this molecule CN1c2ccccc2C(c2ccccc2F)=NCC1CNC(=O)c1cccnc1 (stereo not shown) displays IC50 of 10
